Test system: Caco-2 cells
test_method_notes: Caco-2 permeability assay (apical to basolateral)
Assay type: in vitro ADME, human
conditions_used: Caco-2
Where a SMILES comes first, the peptide text is derived from it. [ ]: non-standard residue; d: D form. NMeL = CN[C@@H](CC(C)C)C(=O)O; dNMeL = CN[C@H](CC(C)C)C(=O)O; NMeA = CN[C@@H](C)C(=O)O; dNMeA = CN[C@H](C)C(=O)O
property_measured: Caco_R3

compound="CC(C)C[C@@H]1C(=O)N[C@H](CC(C)C)C(=O)N2CCC[C@@H]2C(=O)N2CCC[C@@H]2C(=O)N(C)[C@@H](C)C(=O)N[C@H](Cc2ccccc2)C(=O)N[C@@H](C)C(=O)N(C)[C@@H](CC(C)C)C(=O)N1C [Design D8.10, DPRO DPRO *ALA DPHE ALA *LEU *DLEU DLEU] (cyclo(A[NMeL][dNMeL][dL][dP][dP][NMeA][dF]))" subject_of_test="Caco-2 cells" property_measured=Caco_R3 value_measured=3.36
compound="CC[C@@H](C)[C@H]1NC(=O)[C@H](CC(C)C)N(C)C(=O)[C@H]2CCCN2C(=O)[C@H](CC(C)C)NC(=O)[C@H](Cc2ccccc2)N(C)C(=O)[C@H](CC(C)C)N(C)C(=O)[C@@H](C(C)C)NC(=O)[C@H](C)NC(=O)[C@H]2CCCN2C(=O)[C@@H]2CCCN2C1=O [Design D10.17.p2]" subject_of_test="Caco-2 cells" property_measured=Caco_R3 value_measured=7.84
compound="CC[C@@H](C)[C@H]1NC(=O)[C@@H]2CCCN2C(=O)[C@@H]([C@H](C)CC)NC(=O)[C@@H](C)N(C)C(=O)[C@H](CC(C)C)NC(=O)[C@@H](Cc2ccccc2)NC(=O)[C@H](CC(C)C)N(C)C(=O)[C@H]2CCCN2C(=O)[C@@H](CC(C)C)NC(=O)[C@H](CC(C)C)NC(=O)[C@H]2CCCN2C1=O [Design D11.1] (cyclo(L[dL][dP][NMeL][dF]L[dNMeA][dI]P[dI][dP]))" subject_of_test="Caco-2 cells" property_measured=Caco_R3 value_measured=3.24
compound="CC[C@@H](C)[C@H]1NC(=O)[C@H](C)N(C)C(=O)[C@H]([C@@H](C)CC)NC(=O)[C@H]2CCCN2C(=O)[C@H](CC(C)C)N(C)C(=O)[C@@H](C(C)C)NC(=O)[C@H](C)N(C)C(=O)[C@H]([C@@H](C)CC)NC(=O)[C@@H](CC(C)C)NC(=O)[C@@H]2CCCN2C(=O)[C@H]2CCCN2C1=O [Design D11.10] (cyclo([dL]I[NMeA][dV][NMeL][dP]I[NMeA][dI][dP]P))" subject_of_test="Caco-2 cells" property_measured=Caco_R3 value_measured=4.8
compound="CC[C@H](C)[C@@H]1NC(=O)[C@@H](C(C)C)NC(=O)[C@@H]2CCCN2C(=O)[C@@H](CC(C)C)N(C)C(=O)[C@@H](C(C)C)NC(=O)[C@H](CC(C)C)N(C)C(=O)[C@H]2CCCN2C(=O)[C@@H](C)NC(=O)[C@H](Cc2ccccc2)N(C)C(=O)[C@H]2CCCN2C1=O (single isomer, unassigned) [Design D10.3.p1]" subject_of_test="Caco-2 cells" property_measured=Caco_R3 value_measured=6.15
